Biological target: human S1PR4 (Homo sapiens)
Construct: host or cells: CHO-K1
Sequence (O95977 1-384): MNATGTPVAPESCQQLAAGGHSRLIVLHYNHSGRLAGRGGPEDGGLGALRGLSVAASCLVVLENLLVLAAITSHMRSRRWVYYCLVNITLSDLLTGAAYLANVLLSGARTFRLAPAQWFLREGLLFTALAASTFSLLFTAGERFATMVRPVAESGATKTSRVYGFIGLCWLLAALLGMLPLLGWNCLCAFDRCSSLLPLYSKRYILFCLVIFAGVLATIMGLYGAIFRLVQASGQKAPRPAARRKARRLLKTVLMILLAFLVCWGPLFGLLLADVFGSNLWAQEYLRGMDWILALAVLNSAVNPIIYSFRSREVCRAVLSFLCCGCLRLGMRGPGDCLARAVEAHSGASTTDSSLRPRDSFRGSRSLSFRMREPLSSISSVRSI
Experiment: Intracellular Ca2+ release (FLIPR) agonist potency, S1P4
Type: cell-based
Conditions: recombinant CHO-K1 cells expressing human S1PR4, aequorin, Gq/i5; Calcium 5 FLIPR; read-out: S1P4 EC50
pEC50: −log10 of the molar value.
READOUT_NAME: pEC50

{"COMPOUND": "O=C(O)CCOC1CCc2cc(OCc3ccc(F)cc3)ccc2C1 (centres unmarked) [Compound 194]", "pEC50": "< 6.00"}

Can you share its pEC50? I mean this compound: COc1cccc(COc2ccc3c(c2)OCC(N2CC(C(=O)O)C2)C3)c1F (centres unmarked) [Compound 86]
< 6.00

Can you share its pEC50? I mean this compound: O=C(O)COC1CCc2cc(OCc3cccc(Cl)c3)ccc2C1 (centres unmarked) [Compound 205]
< 6.00

Can you share its pEC50? I mean this compound: O=C(O)C1CCN(C2CCc3cc(OCc4c(Cl)cccc4Cl)ccc3C2)C1 (centres unmarked) [Compound 74]
> 6.00

Can you share its pEC50? I mean this compound: O=C(O)C1CN(C2COc3cc(C#Cc4cccc(Cl)c4)ccc3C2)C1 (centres unmarked) [Compound 40]
> 6.00

* * *

Quick reference: pEC50 of the listed items.
Target: human S1PR4 (Homo sapiens, UniProt O95977)
Construct: host or cells: CHO-K1
Experiment: Intracellular Ca2+ release (FLIPR) agonist potency, S1P4
Format: cell-based
Settings: recombinant CHO-K1 cells expressing human S1PR4, aequorin, Gq/i5; Calcium 5 FLIPR; read-out: S1P4 EC50
Description: Agonistic activity was measured using the method described below. Intracellular Ca^2+ Release Agonist potency and intrinsic activity was assessed by measurement of intracellular Ca^2+ release. […] Phospho-fingolimod was used as positive control. […] Measurements were performed using a fluorometric imaging plate reader FLIPR®tetra (Molecular Devices). […]
pEC50: −log10 of the molar value.

{"COMPOUND": "Cc1cccc(COc2ccc3c(c2)OCC(N2CC(C(=O)O)C2)C3)c1 (stereo not drawn) [Compound 58]", "READOUT_NAME": "pEC50", "MEASUREMENT": "< 6.00"}

Quick check: pEC50 on human S1PR4 (Homo sapiens, UniProt O95977), item C=C(CN(Cc1c(Cl)cccc1CC)C1CCc2cc(OCc3c(Cl)cccc3CC)ccc2C1)C(=O)OC (stereo not drawn) [Compound 22] ?
< 6.00

Quick check: pEC50 on human S1PR4 (Homo sapiens, UniProt O95977), item Cc1c(F)cccc1COc1ccc2c(c1)OCC(N1CC(C(=O)O)C1)C2 (stereo not drawn) [Compound 96] ?
< 6.00
